- assay: Metabolic stability in liver microsomes
- recordedConditions: mouse (CD-1) liver microsomes, 25 μM, 30 min
readoutLabel: 30 min—Compound Remaining % (%)
Answer in %, number only, no unit symbol.

Recorded 30 min—Compound Remaining % for Cc1ncsc1-c1ccc([C@H](C)NC(=O)[C@@H]2C[C@@H](O)CN2C(=O)[C@@H](NC(=O)CCOCCOCCOCCNC(=O)c2cc(Oc3ccc(NC(=O)Nc4cc(C(C)(C)C)on4)cc3)ccn2)C(C)(C)C)cc1 [MA49, reference compound] , please?
37.2

Can you handle Cc1ncsc1-c1ccc([C@H](C)NC(=O)[C@@H]2C[C@@H](O)CN2C(=O)[C@@H](NC(=O)[C@H]2CC[C@H](C(=O)N3CCC(CCNC(=O)c4cc(Oc5ccc(NC(=O)Nc6cc(C(C)(C)C)on6)cc5)ccn4)CC3)CC2)C(C)(C)C)cc1 [MA190] next?
93.9

Can you handle O=C(O)Cc1ccccc1Nc1c(Cl)cccc1Cl [Diclofenac, Diclofenac sodium, reference compound] next?
79.0

Can you handle Cc1ncsc1-c1ccc([C@H](C)NC(=O)[C@@H]2C[C@@H](O)CN2C(=O)[C@@H](NC(=O)[C@H]2CC[C@H](C(=O)N3CCN(CCNC(=O)c4cc(Oc5ccc(NC(=O)Nc6cc(C(C)(C)C)on6)cc5)ccn4)CC3)CC2)C(C)(C)C)cc1 [MA191] next?
95.0

----------
Field: remaining at 20 min, 25 µM. Provide a value for each of the compounds that follow.
- assay: in vitro
- recordedConditions: CD-1, mouse, liver microsomes, pH 7.4
Answer in %, number only, no unit symbol.

Recorded remaining at 20 min, 25 µM for Cc1ncsc1-c1ccc([C@H](C)NC(=O)[C@@H]2C[C@@H](O)CN2C(=O)[C@@H](NC(=O)[C@H]2CC[C@H](C(=O)N3CCN(CCNC(=O)c4cc(Oc5ccc(NC(=O)Nc6cc(C(C)(C)C)on6)cc5)ccn4)CC3)CC2)C(C)(C)C)cc1 , please?
96

Can you handle Cc1ncsc1-c1ccc([C@H](C)NC(=O)[C@@H]2C[C@@H](O)CN2C(=O)[C@@H](NC(=O)[C@H]2CC[C@H](C(=O)N3CCC(CCNC(=O)c4cc(Oc5ccc(NC(=O)Nc6cc(C(C)(C)C)on6)cc5)ccn4)CC3)CC2)C(C)(C)C)cc1 next?
90

Can you handle Cc1ncsc1-c1ccc([C@H](C)NC(=O)[C@@H]2C[C@@H](O)CN2C(=O)[C@@H](NC(=O)CCOCCOCCOCCNC(=O)c2cc(Oc3ccc(NC(=O)Nc4cc(C(C)(C)C)on4)cc3)ccn2)C(C)(C)C)cc1 [MA49, reference compound] next?
53

----------
- System: HEK293 cells
- assay: Cytotoxicity in HEK293 cells (Alamar Blue)
- recordedConditions: 50 µM
readoutLabel: cytotoxic effects

Cc1ncsc1-c1ccc([C@H](C)NC(=O)[C@@H]2C[C@@H](O)CN2C(=O)[C@@H](NC(=O)[C@H]2CC[C@H](C(=O)N3CCN(CCNC(=O)c4cc(Oc5ccc(NC(=O)Nc6cc(C(C)(C)C)on6)cc5)ccn4)CC3)CC2)C(C)(C)C)cc1
no cytotoxic effects
CNC(=O)c1cc(Oc2ccc(NC(=O)Nc3cc(C(C)(C)C)on3)cc2)ccn1 [MA68, reference compound]
showed cytotoxic effects
Cc1ncsc1-c1ccc([C@H](C)NC(=O)[C@@H]2C[C@@H](O)CN2C(=O)[C@@H](NC(=O)CCOCCOCCOCCNC(=O)c2cc(Oc3ccc(NC(=O)Nc4cc(C(C)(C)C)on4)cc3)ccn2)C(C)(C)C)cc1 [MA49, reference compound]
showed cytotoxic effects
Cc1ncsc1-c1ccc([C@H](C)NC(=O)[C@@H]2C[C@@H](O)CN2C(=O)[C@@H](NC(=O)[C@H]2CC[C@H](C(=O)N3CCC(CCNC(=O)c4cc(Oc5ccc(NC(=O)Nc6cc(C(C)(C)C)on6)cc5)ccn4)CC3)CC2)C(C)(C)C)cc1
no cytotoxic effects

----------
- assayedTarget: CSNK1D (Homo sapiens)
- Sequence (P48730 whole entry): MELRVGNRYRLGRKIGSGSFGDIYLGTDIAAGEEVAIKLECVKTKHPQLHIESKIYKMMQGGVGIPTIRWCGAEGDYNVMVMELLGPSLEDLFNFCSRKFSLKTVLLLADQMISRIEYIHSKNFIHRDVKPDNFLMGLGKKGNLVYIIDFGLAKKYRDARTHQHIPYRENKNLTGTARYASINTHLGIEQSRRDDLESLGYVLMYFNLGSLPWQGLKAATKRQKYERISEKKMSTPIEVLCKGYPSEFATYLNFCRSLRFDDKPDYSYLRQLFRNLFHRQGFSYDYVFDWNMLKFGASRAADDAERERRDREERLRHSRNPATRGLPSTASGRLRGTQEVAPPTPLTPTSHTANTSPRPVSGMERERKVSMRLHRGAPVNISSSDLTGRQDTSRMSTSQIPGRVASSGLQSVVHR
- assay: NanoBRET CELLinib128
readoutLabel: pEC50
Interpret pEC50 as the negative base-10 log of the concentration measured in mol/L.

Recorded pEC50 for CN[C@@H]1C[C@H]2O[C@@](C)([C@@H]1OC)n1c3ccccc3c3c4c(c5c6ccccc6n2c5c31)C(=O)NC4 , please?
4.98

----------
- assay: Plasma stability
- Type: in vitro ADME
- recordedConditions: pooled human plasma, 37 °C, 10 μM, 60 min, read-out: 60 min—Compound Remaining %
readoutLabel: remaining at 1 h, 10 µM (%)
Answer in %, number only, no unit symbol.

Recorded remaining at 1 h, 10 µM for CNC(=O)c1cc(Oc2ccc(NC(=O)Nc3cc(C(C)(C)C)on3)cc2)ccn1 [MA68, reference compound] , please?
91.9

Can you handle Cc1ncsc1-c1ccc([C@H](C)NC(=O)[C@@H]2C[C@@H](O)CN2C(=O)[C@@H](NC(=O)[C@H]2CC[C@H](C(=O)N3CCN(CCNC(=O)c4cc(Oc5ccc(NC(=O)Nc6cc(C(C)(C)C)on6)cc5)ccn4)CC3)CC2)C(C)(C)C)cc1 next?
92.6

Can you handle Cc1ncsc1-c1ccc([C@H](C)NC(=O)[C@@H]2C[C@@H](O)CN2C(=O)[C@@H](NC(=O)[C@H]2CC[C@H](C(=O)N3CCC(CCNC(=O)c4cc(Oc5ccc(NC(=O)Nc6cc(C(C)(C)C)on6)cc5)ccn4)CC3)CC2)C(C)(C)C)cc1 next?
88.3

Can you handle Cc1ncsc1-c1ccc([C@H](C)NC(=O)[C@@H]2C[C@@H](O)CN2C(=O)[C@@H](NC(=O)CCOCCOCCOCCNC(=O)c2cc(Oc3ccc(NC(=O)Nc4cc(C(C)(C)C)on4)cc3)ccn2)C(C)(C)C)cc1 [MA49, reference compound] next?
95.2

----------
- assay: Non-enzymatic stability under cellular assay conditions (HPLC)
- Type: physicochemical
- recordedConditions: compound remaining, assay medium DMEM, 37 °C, 72 h
readoutLabel: 72 h- %
Reply with the number, then its unit.

Recorded 72 h- % for Cc1ncsc1-c1ccc([C@H](C)NC(=O)[C@@H]2C[C@@H](O)CN2C(=O)[C@@H](NC(=O)CCCCCCCNC(=O)c2cc(Oc3ccc(NC(=O)Nc4cccc(C(F)(F)F)c4)cc3)ccn2)C(C)(C)C)cc1 , please?
101.0%

Can you handle Cc1ncsc1-c1ccc([C@H](C)NC(=O)[C@@H]2C[C@@H](O)CN2C(=O)[C@@H](NC(=O)[C@H]2CC[C@H](C(=O)N3CCC(CCNC(=O)c4cc(Oc5ccc(NC(=O)Nc6cc(C(C)(C)C)on6)cc5)ccn4)CC3)CC2)C(C)(C)C)cc1 next?
107.4%

Can you handle Cc1ncsc1-c1ccc([C@H](C)NC(=O)[C@@H]2C[C@@H](O)CN2C(=O)[C@@H](NC(=O)CCCCCNC(=O)c2cc(Oc3ccc(NC(=O)Nc4cc(C(C)(C)C)on4)cc3)ccn2)C(C)(C)C)cc1 next?
101.0%

Can you handle Cc1ncsc1-c1ccc([C@H](C)NC(=O)[C@@H]2C[C@@H](O)CN2C(=O)[C@@H](NC(=O)CCCCCNC(=O)c2cc(Oc3ccc(NC(=O)Nc4cccc(C(F)(F)F)c4)cc3)ccn2)C(C)(C)C)cc1 next?
101.2%

Can you handle Cc1ncsc1-c1ccc([C@H](C)NC(=O)[C@@H]2C[C@@H](O)CN2C(=O)[C@@H](NC(=O)CCOCCOCCOCCNC(=O)c2cc(Oc3ccc(NC(=O)Nc4cc(C(C)(C)C)on4)cc3)ccn2)C(C)(C)C)cc1 [MA49, reference compound] next?
104.9%

Can you handle Cc1ncsc1-c1ccc([C@H](C)NC(=O)[C@@H]2C[C@@H](O)CN2C(=O)[C@@H](NC(=O)CCCCCCCNC(=O)c2cc(Oc3ccc(NC(=O)Nc4cc(C(C)(C)C)on4)cc3)ccn2)C(C)(C)C)cc1 next?
106.1%

Can you handle Cc1ncsc1-c1ccc([C@H](C)NC(=O)[C@@H]2C[C@@H](O)CN2C(=O)[C@@H](NC(=O)[C@H]2CC[C@H](C(=O)N3CCN(CCNC(=O)c4cc(Oc5ccc(NC(=O)Nc6cc(C(C)(C)C)on6)cc5)ccn4)CC3)CC2)C(C)(C)C)cc1 next?
100.3%

Can you handle CNC(=O)c1cc(Oc2ccc(NC(=O)Nc3cc(C(C)(C)C)on3)cc2)ccn1 [MA68, reference compound] next?
105.2%

Can you handle Cc1ncsc1-c1ccc([C@H](C)NC(=O)[C@@H]2C[C@@H](O)CN2C(=O)[C@@H](NC(=O)CCOCCOCCNC(=O)c2cc(Oc3ccc(NC(=O)Nc4cc(C(C)(C)C)on4)cc3)ccn2)C(C)(C)C)cc1 next?
103.1%

Can you handle Cc1ncsc1-c1ccc([C@H](C)NC(=O)[C@@H]2C[C@@H](O)CN2C(=O)[C@@H](NC(=O)CCCCCCNC(=O)c2cc(Oc3ccc(NC(=O)Nc4cc(C(C)(C)C)on4)cc3)ccn2)C(C)(C)C)cc1 next?
100.7%
